# Test system: KM12 colon
# protocol-notes: NCI-60 one-dose screen, 48 h
# conditions: 10 µM unless noted
# Experimental: Growth inhibition of the KM12 human tumor cell line is measured as a screen for anti-cancer activity. Cells are grown in 96 well plates and exposed to the test compound for 48 hours. Compounds are tested at a single concentration, which is 10^-5 M for most compounds. The reported endpoint is percent growth (GI% or GIPRCNT), where numbers from 0 - 100% represent growth inhibition, and numbers from -100% - 0 represent cell death. For example, a value of 40 represents 60% growth inhibition. […]
About 83,000 compounds went through this panel and 20% of them were active in at least one assay; those are over-represented in the sample as a whole. Calls of active or inactive are those of the source. How the source made its calls: active means growth percent below 10; inactive means the rest.
Log the outcome using a class from Y = active, N = inactive

[Q] Would you mind telling me which call this test gave COc1cc(-c2ccc3c(c2)NC(=O)/C3=C\c2ccc[nH]2)ccc1O ?
[A] Y

[Q] Would you mind telling me which call this test gave N#Cc1c(N)n(CCNC(=O)c2ccccc2)c2nc3ccccc3nc12 ?
[A] N

[Q] Would you mind telling me which call this test gave CCCOc1ccc2nc(NC(=O)OC)[nH]c2c1 ?
[A] Y

[Q] Would you mind telling me which call this test gave CC(=O)c1cc2c(N)c(C(=O)Nc3ccccc3)sc2nc1C ?
[A] N

[Q] Would you mind telling me which call this test gave COc1cc(-c2nc(C(=O)NCC(=O)NO)nn2-c2ccc(Cl)cc2)cc(OC)c1OC ?
[A] N

[Q] Would you mind telling me which call this test gave CCCCCC(=O)Oc1ccc(/C(=C(\C)c2ccc(OC)cc2)c2ccc(OCCN3CCCCC3)cc2)cc1 ?
[A] N

[Q] Would you mind telling me which call this test gave CC1=C[C@H]2c3c(c(O)c(O)c4oc5cc(O)ccc5c(=O)c34)[C@H](c3cc(O)c(O)c4oc5cc(O)ccc5c(=O)c34)[C@H]2C(C)(C)C1 ?
[A] N

[Q] Would you mind telling me which call this test gave CC(C)C1=C[C@@]23CC[C@@H]4[C@](C)(CCC[C@@]4(C)C(=O)N4CCCNCC4)[C@H]2C[C@@H]1[C@H]1C(=O)CCC(=O)[C@H]13 ?
[A] N

[Q] Would you mind telling me which call this test gave Cc1oc(-c2ccc(Cl)cc2Cl)cc1C(=O)Nc1nccs1 ?
[A] N

Hello, the source for this data is PubChem BioAssay (NCI), in case you need it.
